This collection of values is drawn from ChEMBL document CHEMBL4043309.

test name: in vitro
experimental parameters: human, hela
outcome measure: selectivity ratio

molecule | observed value
CN1[C@@H]2CC[C@H]1C[C@@H](OC1c3ccccc3CCc3ccccc31)C2 | 76
COc1ccc2cc1Oc1ccc(cc1)C[C@H]1c3cc(c(OC)cc3CCN1C)Oc1c(OC)c(OC)cc3c1[C@H](C2)N(C)CC3 | 22
COc1cc2c(Oc3ccc4[nH]c(C)cc4c3F)ncnc2cc1OCCCN1CCCC1 | 65
Cc1ccc(CN2CCCN(C)C3(CCN(C)CC3)C2)cc1C | 73
COc1cc2nc(N3CCCN(C)CC3)nc(NC3CCN(Cc4ccccc4)CC3)c2cc1OC | 45

Problem: For the molecule `CC[C@]1(O)C[C@@H]2CN(CCc3c([nH]c4ccccc34)[C@@](C(=O)OC)(c3cc4c(cc3OC)N(C)[C@H]3[C@@](O)(C(N)=O)[C@H](O)[C@]5(CC)C=CCN6CC[C@]43[C@@H]65)C2)C1` , give its measured selectivity ratio value.
Solution: 1840

Problem: For the molecule `CN(C)c1ccccc1CN1CCCN(Cc2ccccc2N(C)C)C1c1ccncc1` , give its measured selectivity ratio value.
Solution: 73

Problem: For the molecule CNC1CCC(N(Cc2cccc(-c3ccncc3)c2)C(=O)c2sc3c(F)ccc(F)c3c2Cl)CC1 (stereo not drawn) , give its measured selectivity ratio value.
Solution: 65

###

test name: in vitro
experimental parameters: human, hela
outcome measure: selectivity ratio
Respond numerically, and do not add a unit to the figure.

Recorded selectivity ratio, per entry:
compound | selectivity ratio
CNC1CCC(N(Cc2cccc(-c3ccncc3)c2)C(=O)c2sc3c(F)ccc(F)c3c2Cl)CC1 (stereo not drawn) | 65
CCC(=C(c1ccc(O)cc1)c1ccc(OCCN(C)C)cc1)c1ccccc1 | 123

Problem: For the compound `COc1cc2c(Oc3ccc4[nH]c(C)cc4c3F)ncnc2cc1OCCCN1CCCC1` , give its measured selectivity ratio value.
Solution: 65

Problem: For the compound CC/C(=C(\c1ccc(O)cc1)c1ccc(OCCNC)cc1)c1ccccc1 [ENDOXIFEN] , give its measured selectivity ratio value.
Solution: 164

Problem: For the compound `COc1cc2nc(N3CCCN(C)CC3)nc(NC3CCN(Cc4ccccc4)CC3)c2cc1OC` , give its measured selectivity ratio value.
Solution: 45

Problem: For the compound `CC[C@]1(O)C[C@@H]2CN(CCc3c([nH]c4ccccc34)[C@@](C(=O)OC)(c3cc4c(cc3OC)N(C)[C@H]3[C@@](O)(C(N)=O)[C@H](O)[C@]5(CC)C=CCN6CC[C@]43[C@@H]65)C2)C1` , give its measured selectivity ratio value.
Solution: 1840

Problem: For the compound `CN1[C@@H]2CC[C@H]1C[C@@H](OC1c3ccccc3CCc3ccccc31)C2` , give its measured selectivity ratio value.
Solution: 76

Problem: For the compound `COc1ccc2cc1Oc1ccc(cc1)C[C@H]1c3cc(c(OC)cc3CCN1C)Oc1c(OC)c(OC)cc3c1[C@H](C2)N(C)CC3` , give its measured selectivity ratio value.
Solution: 22

Problem: For the compound Cc1[nH]c2c(CN3CC(CO)C(CN4CCCC4)C3)cccc2c1C (stereo not drawn) , give its measured selectivity ratio value.
Solution: 82

Problem: For the compound `CC(=O)N(C)C1(c2ccccc2)CCN(CCC[C@]2(c3ccc(Cl)c(Cl)c3)CCCN(C(=O)c3ccccc3)C2)CC1` , give its measured selectivity ratio value.
Solution: 52

Problem: For the compound `Nc1ncnc2c1c(-c1cccc(OCc3ccccc3)c1)cn2[C@H]1C[C@H](CN2CCCC2)C1` , give its measured selectivity ratio value.
Solution: 13

Problem: For the compound `Cc1ccc(CN2CCCN(C)C3(CCN(C)CC3)C2)cc1C` , give its measured selectivity ratio value.
Solution: 73

Problem: For the compound `CN(C)c1ccccc1CN1CCCN(Cc2ccccc2N(C)C)C1c1ccncc1` , give its measured selectivity ratio value.
Solution: 73
